# Tested on: Toxoplasma gondii
# experiment: Antiparasitic activity against Toxoplasma gondii RH tachyzoites by MTT assay
# Format: functional, organism-based
Please respond with True when measured IC50 is strictly beneath 60 µM, and with False in all other cases.

Recorded results for 3 compounds are shown here.
Threshold test, IC50 < 60 µM: `COc1ccc(C[C@H]2COC(=O)[C@@H]2Cc2ccc(OCc3cn(Cc4ccccc4F)nn3)c(OC)c2)cc1OC`
True

Regarding `COC(=O)[C@H](CC(C)C)NC(=O)CCC(=O)Oc1ccc(C[C@H]2C(=O)OC[C@@H]2Cc2ccc(OC)c(OC)c2)cc1OC` , kindly confirm whether its IC50 is beneath 60 µM.
False

In plain terms, does `COc1ccc(-n2cc(COc3ccc(C[C@H]4C(=O)OC[C@@H]4Cc4ccc(OC)c(OC)c4)cc3OC)nn2)cc1` come in under 60 µM for IC50?
False

More entries:
Say whether its IC50 is strictly beneath 60 µM. Entry: `COc1ccc(C[C@H]2COC(=O)[C@@H]2Cc2ccc(OCc3cn(Cc4ccc(F)cc4)nn3)c(OC)c2)cc1OC`
False

Does the reported IC50 of `COC(=O)CC[C@H](NC(=O)CCC(=O)Oc1ccc(C[C@H]2C(=O)OC[C@@H]2Cc2ccc(OC)c(OC)c2)cc1OC)C(=O)OC` stay below 60 µM?
False

Criterion: IC50 strictly below 60 µM. Is it met by `COC(=O)[C@H](Cc1ccccc1)NC(=O)CCC(=O)Oc1ccc(C[C@H]2C(=O)OC[C@@H]2Cc2ccc(OC)c(OC)c2)cc1OC` ?
False

Just wondering, is IC50 of `COc1ccc(C[C@H]2COC(=O)[C@@H]2Cc2ccc(OC(=O)CCC(=O)N3CCCC3)c(OC)c2)cc1OC` below 60 µM?
False

Dear reviewer, please state whether `COC(=O)[C@@H]1CCCN1C(=O)CCC(=O)Oc1ccc(C[C@H]2C(=O)OC[C@@H]2Cc2ccc(OC)c(OC)c2)cc1OC` has IC50 strictly beneath 60 µM.
True
